Reference source: patent US20230357429A1

assay.system: T1, TCE-20 (anti-CD3 scFv S110A; anti-TROP2 wt)
T1 construct: scFv on the Fab heavy chain; also called TCE-20 (S110A)
assay.text: competition ELISA (IC50 above limit); Table 42 Peptide-73 series (FIGS. 103A-103C), limit >3 µM
Where no end group is shown, it is not given here.
outcome.measure: pIC50
Recall that pIC50 is obtained by taking minus log10 of the concentration measured in molar.

Exercise: Which pIC50 reading was recorded for the binder VYCGPEFDESVGCA (cysteine pairing not given here; also: biotinylated, site not given here, mask peptide for the CD3 scFv) [Peptide-73] ?
Key: 5.52
